So I've got a bunch of binders here, and I need their Kd values.
EXPERIMENTAL SYSTEM: T1, Rb^P H555Y (human, UniProt P06400 380-788, H555Y)
T1 construct: also called variant 29
T1 sequence (looked up): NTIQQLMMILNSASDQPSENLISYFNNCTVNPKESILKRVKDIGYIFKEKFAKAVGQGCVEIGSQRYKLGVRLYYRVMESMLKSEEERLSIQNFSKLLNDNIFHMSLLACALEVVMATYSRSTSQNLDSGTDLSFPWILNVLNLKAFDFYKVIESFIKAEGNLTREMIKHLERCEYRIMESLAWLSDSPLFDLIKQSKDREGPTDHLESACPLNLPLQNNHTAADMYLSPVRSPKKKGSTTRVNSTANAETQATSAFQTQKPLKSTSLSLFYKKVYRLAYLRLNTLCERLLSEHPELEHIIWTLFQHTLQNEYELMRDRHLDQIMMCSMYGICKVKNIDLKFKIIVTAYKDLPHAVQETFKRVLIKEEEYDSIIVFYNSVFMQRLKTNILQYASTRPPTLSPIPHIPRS
ASSAY PROCEDURE: fluorescence polarisation; 25 °C; unlabeled Rb^P titrated against 1.5 nM TMR-E2F1^TD or 7.5 nM TMR-E7^LxCxE; 25 mM Tris pH 8.0, 200 mM NaCl, 1 mM DTT, 0.1% Tween-20; 2 min incubation; quadratic fit; apparent Kd for the variants, Kd for WT
PROTOCOL CONDITIONS: both partners purified
No end group written: not given here. TMR = tetramethyl rhodamine dye
API: value field is a number in nM; no unit string.

query: Which value of Kd has been reported for DLYCYEQLN (also: TMR label, position not given here, source: synthetic peptide, bought: GenScript) [TMR-E7^LxCxE, LxCxE peptide of the E7 oncoprotein from HPV] in the records?
result: 8

query: Which value of Kd has been reported for {TMR}-GEGIRDLFDCDFGDLTPLD (also called E2F^TD; source: synthetic peptide, bought: GenScript) [TMR-E2F1^TD, peptide of the E2F1 transactivation domain] in the records?
result: 158
